test system: Fibroblast; assay: Multiplex assay against human fibroblast; assay type: toxicity, cell-based; settings: 24 h, 10 µM, compound concentration 10 uM, replicate 1
Here the recorded Population Healthy Nuclei (%) is given for each entry.

| CHEMICAL_STRUCTURE | QUANTITY_UNIT | Population Healthy Nuclei (%) |
| --- | --- | --- |
| CCOC(=O)CCNc1cc(N2CCc3ccccc3CC2)nc(-c2ccccn2)n1 | % | 50 |
| Cc1ccc(NC(=O)Nc2cc(C(F)(F)F)ccc2F)cc1Nc1ccc2c(c1)NC(=O)/C2=C\c1ccc[nH]1 | % | 61 |
| c1ccc(-c2oc3ncnc(NC[C@@H]4CCCO4)c3c2-c2ccccc2)cc1 | % | 39 |
| NC(=O)c1ccc2nc(-c3ccc(C4(N)CCC4)cc3)c(-c3ccccc3)n2n1 | % | 65 |
| Cc1c(P(=S)(c2ccccc2)c2ccccc2)n2ccccc2[n+]1C/C=C/c1ccccc1.[Br-] | % | 10 |
| CN(c1cc(C(F)(F)F)nc(OCCC(=O)O)n1)c1cccc2c1CCC2 | % | 60 |
| CC[C@@H]1C(=O)N(C)c2cnc(Nc3ccc(C(=O)NC4CCN(C)CC4)cc3OC)nc2N1C1CCCC1 | % | 55 |
| CCCCN(CC)c1nc(C)nc2c1c(C)cn2-c1c(C)cc(C)cc1C.Cl | % | 47 |
| CC[C@@]1(O)C(=O)OCc2c1cc1n(c2=O)Cc2cc3ccccc3nc2-1 | % | 45 |
